# ASSAY: ATG_M_19_CIS: Attagene CIS-FACTORIAL HepG2 Assay for M19 Transcription Factor (Internal Marker) (AID 2282939)
# CONDITION CONTEXT: HepG2 Attagene CIS-FACTORIAL M19 internal marker reporter; actives raise or lower the signal
Activity calls are given as the source filed them. The calls were made as follows: active = hit-call score of the fitted dose curve at least 0.9, where 1 is the maximum; inactive = score below 0.9.
Please state which outcome applies, choosing from 1 = active, -1 = inactive

Here's what some known entries look like.
- CC(C)c1ccc(O)c(C(C)C)c1: -1
- C=C(C)C(=O)OCCCCCCCCCCCC: -1
- Oc1ccc(-c2ccccc2)c(Cl)c1: -1
- CCC[Si](OC)(OC)OC: -1
- [Cl][Sc]([Cl])[Cl]: -1

Request: Given Cc1ccc([N+](=O)[O-])cc1N , state the outcome it received in this test.
Result: -1

Request: Outcome? C=C(C)[C@@H]1CC=C(C)CC1
Result: -1

Request: Recorded call for Cc1c[nH]c(=O)[nH]c1=O ?
Result: -1

Request: How was CCCCCCCCCC[N+](C)(CCCCCCCCCC)CCC[Si](OC)(OC)OC classified in this test?
Result: 1

Request: Fill in: this test's call for CCCCOC(=O)C(C)CC (configuration not stated) is ___
Result: -1

Request: # outcome recorded in this test, key = CCOC(=O)C1=NOC(c2ccccc2)(c2ccccc2)C1
Result: -1

Request: For CCCC(CC)c1ccccc1 (configuration not stated) , which call appears in the assay record?
Result: -1

Request: Called result for Cc1cc(C)n(CO)n1
Result: -1

Request: What did this assay record as the result for NNS(=O)(=O)c1ccc(Oc2ccc(S(=O)(=O)NN)cc2)cc1 ?
Result: -1

Request: What is the recorded call for this compound in the test? O=C1c2ccccc2C(=O)c2cc(S(=O)(=O)O)ccc21
Result: -1

Request: Which outcome did this test record for the compound O=C(C=Cc1ccccc1)OCCc1ccccc1 ?
Result: -1

Request: Field: outcome | Entry: O=C1CCCCC1C1CCCCC1 (configuration not stated)
Result: -1

Request: Test call, this compound: CC(C)(C)C1CCC(=O)CC1
Result: -1

Request: Check the results log: what was the call for CCCCCC1=CCCC1=O ?
Result: -1

Request: GET /call?item= CCC1(C)C(=O)N(Cl)C(=O)N1Cl (configuration not stated) returns the recorded outcome of this test.
Result: -1

Request: Which outcome did this test record for the compound CCCCOCC(C)O (configuration not stated) ?
Result: -1

Request: Give the logged outcome of this assay for the following compound: O=C(O)C1CCC(C(=O)O)CC1 (configuration not stated)
Result: -1
